Molecular target: T1, LTKTG-EGFL (human LTK amino acids 63-420) (human, UniProt P29376 63-420)
T1 construct: Fc-His6 tag removed by caspase 3; also called LTK (in BLI, SEC-MALLS and ITC)
T1 sequence: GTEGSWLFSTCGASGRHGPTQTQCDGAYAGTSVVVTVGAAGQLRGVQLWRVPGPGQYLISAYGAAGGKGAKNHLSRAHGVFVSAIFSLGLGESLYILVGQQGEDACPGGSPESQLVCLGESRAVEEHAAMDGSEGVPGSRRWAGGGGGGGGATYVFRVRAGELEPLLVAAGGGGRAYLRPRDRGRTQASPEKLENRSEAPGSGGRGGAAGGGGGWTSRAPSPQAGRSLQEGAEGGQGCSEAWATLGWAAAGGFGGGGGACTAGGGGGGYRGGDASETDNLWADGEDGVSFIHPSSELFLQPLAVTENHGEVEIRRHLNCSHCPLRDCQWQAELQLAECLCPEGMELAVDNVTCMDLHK
Assay: BLI, biotinylated ALKAL2 H100A on streptavidin biosensors, LTKTG-EGFL in solution, dilution series 6.4 µM-400 nM, biphasic fit, component 2
test readout: pKd
One number for each entry, as −log10 of the molar value.

Task: Name the recorded pKd of the item ALKAL2^H100A (residues 78-152) (ligand, human, UniProt Q6UX46 78-152, looked up, range 78-152; Avi-tagged and biotinylated in BLI; also called ALKAL2 site 2 mutant H100A) PSPEQRVEIVPRDLRMKDKFLKALTGPLYFSPKCSKHFHRLYHNTRDCTIPAYYKRCARLLTRLAVSPVCMEDKQ in your answer.
Result: 5.52
